target: human ether-à-go-go-related gene (hERG) potassium channel (human); assay: primary screen, population patch clamp on CHO cells stably expressing hERG; higher = less effect of the substance;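 further: peak tail current of the secondary pulse compared with the same well before compound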
Sequence (Q12809 whole entry, looked up): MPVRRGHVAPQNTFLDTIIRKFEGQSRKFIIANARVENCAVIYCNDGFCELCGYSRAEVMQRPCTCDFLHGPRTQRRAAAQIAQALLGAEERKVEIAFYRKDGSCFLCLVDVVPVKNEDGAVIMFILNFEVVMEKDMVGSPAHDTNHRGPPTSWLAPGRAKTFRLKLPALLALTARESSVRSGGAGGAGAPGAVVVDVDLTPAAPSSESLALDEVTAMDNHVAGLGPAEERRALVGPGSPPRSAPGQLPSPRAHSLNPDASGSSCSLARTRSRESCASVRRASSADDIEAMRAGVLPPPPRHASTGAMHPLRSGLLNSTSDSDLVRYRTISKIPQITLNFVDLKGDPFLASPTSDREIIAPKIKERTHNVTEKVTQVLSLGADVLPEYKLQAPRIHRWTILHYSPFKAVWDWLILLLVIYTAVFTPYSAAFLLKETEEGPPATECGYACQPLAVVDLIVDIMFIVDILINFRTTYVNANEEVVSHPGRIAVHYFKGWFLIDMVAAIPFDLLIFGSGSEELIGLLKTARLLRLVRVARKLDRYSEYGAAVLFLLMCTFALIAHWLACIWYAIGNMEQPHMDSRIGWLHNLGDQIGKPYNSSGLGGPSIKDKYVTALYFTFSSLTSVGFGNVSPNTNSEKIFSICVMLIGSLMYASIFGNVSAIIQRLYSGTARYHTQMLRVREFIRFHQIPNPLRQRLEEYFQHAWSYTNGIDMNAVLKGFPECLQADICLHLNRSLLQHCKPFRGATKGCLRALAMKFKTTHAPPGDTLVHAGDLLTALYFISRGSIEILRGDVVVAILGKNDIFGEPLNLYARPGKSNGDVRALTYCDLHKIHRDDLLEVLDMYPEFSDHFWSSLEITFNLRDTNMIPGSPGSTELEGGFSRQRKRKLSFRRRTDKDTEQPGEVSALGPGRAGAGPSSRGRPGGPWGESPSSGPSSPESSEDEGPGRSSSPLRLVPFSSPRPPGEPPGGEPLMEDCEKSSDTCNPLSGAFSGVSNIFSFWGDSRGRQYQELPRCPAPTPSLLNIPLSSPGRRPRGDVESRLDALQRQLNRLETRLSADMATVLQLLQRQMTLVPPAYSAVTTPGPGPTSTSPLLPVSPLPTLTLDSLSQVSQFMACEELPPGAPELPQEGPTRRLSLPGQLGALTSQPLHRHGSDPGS
Hit rate of the full screen: of about 310,000 compounds, about 14,000 (4.5%) showed an effect of 50% or more. Effects have a minus sign here. The entries come from a sample that favours strong results as a whole.
Give hERG current change (%, negative = inhibition) at 10uM for every item shown.
One number for each entry, in %.

INSERT INTO measurements (compound, measured) VALUES
  ('COc1ccccc1N1CCN(C(=O)CN2C(=O)C3CCCCC3C2=O)CC1 (stereo not shown)', 22.7);

Parameters: items (list). Returns: hERG current change (%, negative = inhibition) at 10uM for each item.
1. O=C(c1cncc(Br)c1)N1CCN(c2ccc(N3CCOCC3)nn2)CC1
2. COc1cccc(-c2nc(N3CCN(c4ccccc4)CC3)c3ccccc3n2)c1O
3. COc1ccc(C(=O)NCc2ccccc2OC)c(OC)c1
4. COc1cccc(N2CCN(C(=O)c3nc4nc(C)cc(C)n4n3)CC2)c1
5. c1ccc(N2CCN(c3nc(-c4ccccn4)nc4ccccc34)CC2)cc1
6. c1ccc(CN2CCN(c3nc(-c4ccccn4)nc4ccccc34)CC2)cc1
7. CC1(c2nnc(-c3ccccc3)o2)CC(c2ccc([N+](=O)[O-])cc2)=NO1 (stereo not shown)

**Result**
1. -2.06
2. 0.912
3. -11.6
4. 7.28
5. -73.9
6. 5.45
7. 4.53

Please report hERG current change (%, negative = inhibition) at 10uM for every entry that follows.
1. Cc1ccc(/C=N/NC(=O)C(NC(=O)c2ccccc2)c2n[nH]c(=O)c3ccccc23)cc1 (stereo not shown)
2. Oc1ccccc1-c1nc(N2CCCC2)c2ccccc2n1

**Result**
[-2.54, -13.2]

Reference for the values: paper PMC4336329
